src = the supplement of paper PMC10567573

B1: SLC19A2 (parent)
chain: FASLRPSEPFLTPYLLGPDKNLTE

- Variants of: B1
- test: protein stability index of a GFP-peptide fusion (GPS, HEK-293T) (PSI 1-6); higher = more stable;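 further: lentivirally expressed fusions sorted by FACS into six bins by GFP to DsRed ratio, PSI derived from sequencing read proportions per bin multiplied by bin number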
- condition info: c terminus: a fixed tail appended
quantity kind: protein stability index
Numbers only.

# annotated cases, reported protein stability index shown
>>> value("F1Y")
1.5
>>> value("F10G")
2.3
>>> value("K20I")
2.44
>>> value("P13T")
1.66
>>> value("L4Y")
1.7

Field: protein stability index. Fill in for each record below.
1. P6R
2. D19G

1. 2.12
2. 1.75
